This collection of values is drawn from ChEMBL document CHEMBL4627399.

TARGET_SYSTEM: Mu-type opioid receptor (Homo sapiens)
Sequence (P35372 whole entry): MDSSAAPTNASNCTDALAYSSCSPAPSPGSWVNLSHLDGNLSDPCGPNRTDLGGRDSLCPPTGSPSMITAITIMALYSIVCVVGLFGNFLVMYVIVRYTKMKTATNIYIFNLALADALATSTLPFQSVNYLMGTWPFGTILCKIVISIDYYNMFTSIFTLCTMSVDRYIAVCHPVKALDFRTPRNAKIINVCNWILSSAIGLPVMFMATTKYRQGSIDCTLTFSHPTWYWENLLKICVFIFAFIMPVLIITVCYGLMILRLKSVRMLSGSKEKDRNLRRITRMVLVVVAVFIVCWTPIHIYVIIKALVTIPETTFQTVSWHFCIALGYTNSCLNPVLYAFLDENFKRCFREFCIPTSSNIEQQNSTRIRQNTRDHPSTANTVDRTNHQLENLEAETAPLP
ASSAY_EXPLANATION: biochemical
Description: Agonist activity at human mu opioid receptor expressed in CHO cell membranes incubated for 1 hr by [35S]GTPgammaS binding assay
Form field: EC50 (one value per entry).
REPORTED_PROPERTY: EC50

STRUCTURE: Oc1ccc2c3c1O[C@H]1c4ncc(-c5ccncn5)cc4C[C@@]4(OCCCc5ccccc5)[C@@H](C2)N(CC2CC2)CC[C@]314
TEST_VALUE: > 3.33 µM
//
STRUCTURE: Oc1ccc2c3c1O[C@H]1c4ncc(-c5cncnc5)cc4C[C@@]4(OCCCc5ccccc5)[C@@H](C2)N(CC2CC2)CC[C@]314
TEST_VALUE: > 3.33 µM
//
STRUCTURE: Oc1ccc2c3c1O[C@H]1c4ncc(-c5cnccn5)cc4C[C@@]4(OCCCc5ccccc5)[C@@H](C2)N(CC2CC2)CC[C@]314
TEST_VALUE: > 3.33 µM

* * *

TARGET_SYSTEM: Delta-type opioid receptor (Homo sapiens, UniProt P41143)
Sequence (P41143 whole entry): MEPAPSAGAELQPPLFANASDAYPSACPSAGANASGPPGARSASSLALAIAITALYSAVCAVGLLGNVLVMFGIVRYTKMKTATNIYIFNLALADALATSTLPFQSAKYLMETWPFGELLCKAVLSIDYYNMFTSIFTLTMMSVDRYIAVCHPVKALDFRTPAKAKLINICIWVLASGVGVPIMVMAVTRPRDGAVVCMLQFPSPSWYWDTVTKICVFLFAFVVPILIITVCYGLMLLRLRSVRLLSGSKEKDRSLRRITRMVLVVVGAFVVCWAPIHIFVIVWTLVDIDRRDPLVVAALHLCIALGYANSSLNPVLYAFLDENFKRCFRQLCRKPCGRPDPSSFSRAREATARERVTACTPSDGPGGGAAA
ASSAY_EXPLANATION: Displacement of [3H]-diprenorphine from human delta opioid receptor expressed in CHO cell membranes incubated for 1 hr by competition radioligand binding assay
Form field: Ki (one value per entry).
REPORTED_PROPERTY: Ki (nM)

STRUCTURE: COc1cc(-c2cnc3c(c2)C[C@@]2(OCCCc4ccccc4)[C@H]4Cc5ccc(O)c6c5[C@@]2(CCN4CC2CC2)[C@H]3O6)ccn1
QUALIFIER_SYMBOL: =
TEST_VALUE: 3.5

STRUCTURE: Oc1ccc2c3c1O[C@H]1c4ncc(-c5cncnc5)cc4C[C@@]4(OCCCc5ccccc5)[C@@H](C2)N(CC2CC2)CC[C@]314
QUALIFIER_SYMBOL: =
TEST_VALUE: 5.18

STRUCTURE: Cc1cc(F)ccc1-c1cnc2c(c1)C[C@@]1(OCCCc3ccccc3)[C@H]3Cc4ccc(O)c5c4[C@@]1(CCN3CC1CC1)[C@H]2O5
QUALIFIER_SYMBOL: =
TEST_VALUE: 3.78

STRUCTURE: CN(C)c1ccc(-c2cnc3c(c2)C[C@@]2(OCCCc4ccccc4)[C@H]4Cc5ccc(O)c6c5[C@@]2(CCN4CC2CC2)[C@H]3O6)cc1
QUALIFIER_SYMBOL: =
TEST_VALUE: 53.1

STRUCTURE: CC(=O)Nc1cccc(-c2cnc3c(c2)C[C@@]2(OCCCc4ccccc4)[C@H]4Cc5ccc(O)c6c5[C@@]2(CCN4CC2CC2)[C@H]3O6)c1
QUALIFIER_SYMBOL: >
TEST_VALUE: 3330
